target: Serine/threonine-protein kinase 26 (Homo sapiens); experiment: Inhibition of recombinant human full length GST-tagged MST4 expressed in baculovirus expression system at 1 uM relative to control
inhibition of 20% or higher: fulfilled. Under 20%: not fulfilled.

smiles_structure: COc1ccc(C(N)=O)cc1C(=O)Nc1cccc(-c2nncn2C(C)C)n1
category_label: fulfilled
//
smiles_structure: COc1ccc(S(C)(=O)=O)cc1C(=O)Nc1cccc(-c2nncn2C(C)C)n1
category_label: not fulfilled
//
smiles_structure: COc1ccc(S(N)(=O)=O)cc1C(=O)Nc1cccc(-c2nncn2C(C)C)n1
category_label: not fulfilled
//
smiles_structure: COc1cc(C)c(C(N)=O)cc1C(=O)Nc1cccc(-c2nncn2C(C)C)n1
category_label: fulfilled
//
smiles_structure: COc1cc(C)c(S(N)(=O)=O)cc1C(=O)Nc1cccc(-c2nncn2C(C)C)n1
category_label: not fulfilled

# input for lookup
Challenge: Is it the case that COc1cc(C)c(S(C)(=O)=O)cc1C(=O)Nc1cccc(-c2nncn2C(C)C)n1 has inhibition reaching or exceeding 20%?
Response given: not fulfilled

----------
Recorded inhibition, one value per entry.
biological target: Protein kinase C beta type (Homo sapiens) (UniProt P05771); assay: Inhibition of recombinant human full length GST-tagged PRKCB2 expressed in insect cells at 1 uM relative to control
Sequence (P05771 2-671 limits assumed): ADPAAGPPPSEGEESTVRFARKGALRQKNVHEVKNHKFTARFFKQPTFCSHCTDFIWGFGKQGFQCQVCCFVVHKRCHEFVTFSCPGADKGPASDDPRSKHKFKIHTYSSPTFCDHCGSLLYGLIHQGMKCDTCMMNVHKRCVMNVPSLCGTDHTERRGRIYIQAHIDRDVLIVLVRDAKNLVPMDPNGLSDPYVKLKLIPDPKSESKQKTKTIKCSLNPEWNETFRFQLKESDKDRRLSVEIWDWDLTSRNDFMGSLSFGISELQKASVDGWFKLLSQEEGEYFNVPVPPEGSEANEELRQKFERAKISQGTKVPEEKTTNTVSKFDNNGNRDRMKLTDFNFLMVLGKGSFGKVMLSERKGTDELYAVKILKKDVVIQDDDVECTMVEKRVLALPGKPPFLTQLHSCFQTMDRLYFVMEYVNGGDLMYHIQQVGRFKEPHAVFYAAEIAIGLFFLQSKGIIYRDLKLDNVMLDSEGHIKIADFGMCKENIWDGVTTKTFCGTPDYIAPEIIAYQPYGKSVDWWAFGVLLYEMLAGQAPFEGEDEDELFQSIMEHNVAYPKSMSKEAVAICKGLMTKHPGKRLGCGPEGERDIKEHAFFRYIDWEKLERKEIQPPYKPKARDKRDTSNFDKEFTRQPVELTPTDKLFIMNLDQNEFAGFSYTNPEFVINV
Express it in %; write the number only.

These solved cases illustrate the format of a correct answer.
smiles_structure: COc1ccc(S(C)(=O)=O)cc1C(=O)Nc1cccc(-c2nncn2C(C)C)n1
measure: inhibition
value_reported: 5
--
smiles_structure: COc1cc(C)c(S(C)(=O)=O)cc1C(=O)Nc1cccc(-c2nncn2C(C)C)n1
measure: inhibition
value_reported: 12
--
smiles_structure: COc1ccc(S(N)(=O)=O)cc1C(=O)Nc1cccc(-c2nncn2C(C)C)n1
measure: inhibition
value_reported: 12
--
smiles_structure: COc1cc(C)c(C(N)=O)cc1C(=O)Nc1cccc(-c2nncn2C(C)C)n1
measure: inhibition
value_reported: 3
--
smiles_structure: COc1ccc(C(N)=O)cc1C(=O)Nc1cccc(-c2nncn2C(C)C)n1
measure: inhibition
value_reported: 9

Proceed to the following item.
Entry COc1cc(C)c(S(N)(=O)=O)cc1C(=O)Nc1cccc(-c2nncn2C(C)C)n1 , Protein kinase C beta type (Homo sapiens) (UniProt P05771) data, inhibition value: 9

----------
target: UniProtKB O14965; assay: Inhibition of recombinant full length human His-tagged AURKA expressed in baculovirus expression system at 1 uM relative to control
Sequence (O14965 whole entry): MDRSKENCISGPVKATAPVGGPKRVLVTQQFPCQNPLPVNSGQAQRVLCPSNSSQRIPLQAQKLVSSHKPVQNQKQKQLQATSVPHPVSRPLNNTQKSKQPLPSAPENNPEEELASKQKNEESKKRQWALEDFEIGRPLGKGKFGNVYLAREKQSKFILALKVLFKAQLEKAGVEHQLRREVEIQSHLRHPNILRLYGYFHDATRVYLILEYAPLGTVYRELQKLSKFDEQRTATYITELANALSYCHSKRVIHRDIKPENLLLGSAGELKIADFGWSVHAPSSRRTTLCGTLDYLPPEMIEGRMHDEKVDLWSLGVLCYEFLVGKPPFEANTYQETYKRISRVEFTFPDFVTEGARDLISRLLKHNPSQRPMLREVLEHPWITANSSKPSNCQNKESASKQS
measure: inhibition (%)
Express it in %; write the number only.

smiles_structure: COc1ccc(S(C)(=O)=O)cc1C(=O)Nc1cccc(-c2nncn2C(C)C)n1
inhibition, %: 11

inhibition reported for this compound COc1ccc(C(N)=O)cc1C(=O)Nc1cccc(-c2nncn2C(C)C)n1 : 3

inhibition reported for this compound COc1cc(C)c(S(N)(=O)=O)cc1C(=O)Nc1cccc(-c2nncn2C(C)C)n1 : 5

inhibition reported for this compound COc1ccc(S(N)(=O)=O)cc1C(=O)Nc1cccc(-c2nncn2C(C)C)n1 : -4

inhibition reported for this compound COc1cc(C)c(S(C)(=O)=O)cc1C(=O)Nc1cccc(-c2nncn2C(C)C)n1 : -1

inhibition reported for this compound COc1cc(C)c(C(N)=O)cc1C(=O)Nc1cccc(-c2nncn2C(C)C)n1 : 2

----------
biological target: Tyrosine-protein kinase ABL1 (Homo sapiens); assay: Inhibition of recombinant human His-tagged ABL1 expressed in baculovirus expression system at 1 uM relative to control
measure: inhibition (%)
Express it in %; write the number only.

smiles_structure: COc1ccc(S(N)(=O)=O)cc1C(=O)Nc1cccc(-c2nncn2C(C)C)n1
measure_unit: %
inhibition: -3

smiles_structure: COc1cc(C)c(S(N)(=O)=O)cc1C(=O)Nc1cccc(-c2nncn2C(C)C)n1
measure_unit: %
inhibition: 4

smiles_structure: COc1ccc(S(C)(=O)=O)cc1C(=O)Nc1cccc(-c2nncn2C(C)C)n1
measure_unit: %
inhibition: -4

smiles_structure: COc1cc(C)c(S(C)(=O)=O)cc1C(=O)Nc1cccc(-c2nncn2C(C)C)n1
measure_unit: %
inhibition: -6

smiles_structure: COc1cc(C)c(C(N)=O)cc1C(=O)Nc1cccc(-c2nncn2C(C)C)n1
measure_unit: %
inhibition: 16

Proceed to the following item.
inhibition reported for this compound COc1ccc(C(N)=O)cc1C(=O)Nc1cccc(-c2nncn2C(C)C)n1 : 16

Cited source: ChEMBL document CHEMBL4251655
